# ASSAY TARGET: Integrin alpha-4/beta-1 (Homo sapiens, UniProt P05556+P13612)
# PROCEDURE SUMMARY: Antagonist activity at alpha4beta1 in human Jurkat E6.1 cells assessed as reduction in cell adhesion to VCAM1 pre-incubated for 30 mins before VCAM1 and further incubated for 30 mins by […]
# Assay type: cell-based
pIC50: −log10 of the molar value.
Reported pIC50 values for the following compounds.
VALUE TYPE: pIC50

COMPOUND: Cc1ccccc1NC(=O)N1C(=O)CC1CC(=O)NCC(=O)O (stereo not given)
VALUE TYPE: pIC50
EXPERIMENTAL VALUE: < 5.30
--
COMPOUND: NCc1ccc(NC(=O)N2C(=O)CC2CC(=O)O)cc1.O=C(O)C(F)(F)F (stereo not given)
VALUE TYPE: pIC50
EXPERIMENTAL VALUE: < 5.30
--
COMPOUND: NCc1ccc(NC(=O)N2C(=O)C[C@H]2C(=O)O)cc1.O=C(O)C(F)(F)F
VALUE TYPE: pIC50
EXPERIMENTAL VALUE: < 5.30
--
COMPOUND: Nc1ccc(CNC(=O)N2C(=O)CC2CC(=O)O)cc1.O=C(O)C(F)(F)F (stereo not given)
VALUE TYPE: pIC50
EXPERIMENTAL VALUE: 6.24
--
COMPOUND: NCc1ccc(NC(=O)N2C(=O)CC2CC(=O)NCCC(=O)O)cc1.O=C(O)C(F)(F)F (stereo not given)
VALUE TYPE: pIC50
EXPERIMENTAL VALUE: < 5.30
--
COMPOUND: NCc1ccc(NC(=O)N2C(=O)CC2CC(=O)NCC(=O)O)cc1.O=C(O)C(F)(F)F (stereo not given)
VALUE TYPE: pIC50
EXPERIMENTAL VALUE: < 5.30
--
COMPOUND: Nc1ccc(CNC(=O)N2C(=O)CC2CC(=O)NCCC(=O)O)cc1.O=C(O)C(F)(F)F (stereo not given)
VALUE TYPE: pIC50
EXPERIMENTAL VALUE: < 5.30
--
COMPOUND: O=C(O)CC1CC(=O)N1 (stereo not given)
VALUE TYPE: pIC50
EXPERIMENTAL VALUE: < 5.30
--
COMPOUND: Cc1ccccc1NC(=O)N1C(=O)CC1CC(=O)NCCC(=O)O (stereo not given)
VALUE TYPE: pIC50
EXPERIMENTAL VALUE: 7.76
--
COMPOUND: Cc1ccccc1NC(=O)N1C(=O)C[C@H]1C(=O)NCCC(=O)O
VALUE TYPE: pIC50
EXPERIMENTAL VALUE: < 5.30

###

# ASSAY TARGET: Integrin alpha-5/beta-1 (Homo sapiens, UniProt P05556+P08648)
# PROCEDURE SUMMARY: Antagonist activity at alpha5beta1 in human K562 cells assessed as reduction in cell adhesion to fibronectin pre-incubated for 30 mins before fibronectin and further incubated for 1 hr by nitrophenyl-N-acetyl-beta-D-glucosaminide substrate based chromogenic assay
VALUE TYPE: IC50

SUBSTANCE: H-GRGDTP-OH
EXPERIMENTAL VALUE: 620 pM

###

# ASSAY TARGET: Integrin alpha-5/beta-1 (Homo sapiens, UniProt P05556+P08648)
# PROCEDURE SUMMARY: Inhibition of fibronectin binding to alpha5beta1 isolated from human K562 cells incubated for 1 hr by […] competitive solid-phase binding assay
# Type: tissue-based

COMPOUND: Nc1ccc(CNC(=O)N2C(=O)CC2CC(=O)O)cc1.O=C(O)C(F)(F)F (stereo not given)
LT GT EQ: =
IC50, µM: 0.0097

COMPOUND: Nc1ccc(CNC(=O)N2C(=O)C[C@H]2C(=O)O)cc1.O=C(O)C(F)(F)F
LT GT EQ: =
IC50, µM: 0.331

COMPOUND: Cc1ccccc1NC(=O)N1C(=O)CC1CC(=O)NCC(=O)O (stereo not given)
LT GT EQ: =
IC50, µM: 0.052

COMPOUND: NCc1ccc(NC(=O)N2C(=O)CC2CC(=O)NCC(=O)O)cc1.O=C(O)C(F)(F)F (stereo not given)
LT GT EQ: >
IC50, µM: 1

COMPOUND: Cc1ccccc1NC(=O)N1C(=O)C[C@H]1C(=O)O
LT GT EQ: =
IC50, µM: 0.114

COMPOUND: NCc1ccc(NC(=O)N2C(=O)CC2CC(=O)O)cc1.O=C(O)C(F)(F)F (stereo not given)
LT GT EQ: =
IC50, µM: 0.0055

COMPOUND: Cc1ccccc1NC(=O)N1C(=O)CC1CC(=O)NCCC(=O)O (stereo not given)
LT GT EQ: =
IC50, µM: 0.036

COMPOUND: NCc1ccc(NC(=O)N2C(=O)CC2CC(=O)NCCC(=O)O)cc1.O=C(O)C(F)(F)F (stereo not given)
LT GT EQ: =
IC50, µM: 0.0055

COMPOUND: Cc1ccccc1NC(=O)N1C(=O)CC1CC(=O)O (stereo not given)
LT GT EQ: >
IC50, µM: 1

COMPOUND: O=C(O)CC1CC(=O)N1 (stereo not given)
LT GT EQ: >
IC50, µM: 1

###

# ASSAY TARGET: Integrin alpha-IIb/beta-3 (Homo sapiens, UniProt P05106+P08514)
# PROCEDURE SUMMARY: Agonist activity at alpha2bbeta3 in human HEL cells assessed as increase in cell adhesion to fibrinogen pre-incubated for 30 mins before fibrinogen and further incubated for 1 hr by nitrophenyl-N-acetyl-beta-D-glucosaminide substrate based chromogenic assay
Reported EC50 values for the following compounds.
VALUE TYPE: EC50

COMPOUND: Cc1ccccc1NC(=O)N1C(=O)C[C@H]1C(=O)O
EXPERIMENTAL VALUE: > 5 µM
--
COMPOUND: NCc1ccc(NC(=O)N2C(=O)C[C@H]2C(=O)O)cc1.O=C(O)C(F)(F)F
EXPERIMENTAL VALUE: > 5 µM
--
COMPOUND: NCc1ccc(NC(=O)N2C(=O)CC2CC(=O)NCCC(=O)O)cc1.O=C(O)C(F)(F)F (stereo not given)
EXPERIMENTAL VALUE: 1.56 µM
--
COMPOUND: Nc1ccc(CNC(=O)N2C(=O)C[C@H]2C(=O)O)cc1.O=C(O)C(F)(F)F
EXPERIMENTAL VALUE: > 5 µM
--
COMPOUND: Nc1ccc(CNC(=O)N2C(=O)CC2CC(=O)O)cc1.O=C(O)C(F)(F)F (stereo not given)
EXPERIMENTAL VALUE: > 5 µM
--
COMPOUND: NCc1ccc(NC(=O)N2C(=O)CC2CC(=O)NCC(=O)O)cc1.O=C(O)C(F)(F)F (stereo not given)
EXPERIMENTAL VALUE: > 5 µM
--
COMPOUND: Cc1ccccc1NC(=O)N1C(=O)CC1CC(=O)NCCC(=O)O (stereo not given)
EXPERIMENTAL VALUE: > 5 µM
--
COMPOUND: O=C(O)CC1CC(=O)N1 (stereo not given)
EXPERIMENTAL VALUE: 0.311 µM
--
COMPOUND: Nc1ccc(CNC(=O)N2C(=O)CC2CC(=O)NCCC(=O)O)cc1.O=C(O)C(F)(F)F (stereo not given)
EXPERIMENTAL VALUE: > 5 µM
--
COMPOUND: O=C(O)CC1CC(=O)N1C(=O)NCc1ccccc1 (stereo not given)
EXPERIMENTAL VALUE: > 5 µM

###

# ASSAY TARGET: Integrin alpha-V/beta-5 (Homo sapiens, UniProt P06756+P18084)
# PROCEDURE SUMMARY: Antagonist activity at alphaVbeta5 in human MCF7 cells assessed as reduction in cell adhesion to fibrinogen pre-incubated for 30 mins before fibrinogen and further incubated for 1 hr by nitrophenyl-N-acetyl-beta-D-glucosaminide substrate based chromogenic assay
pIC50: −log10 of the molar value.
VALUE TYPE: pIC50

SUBSTANCE: H-GRGDTP-OH
ASSAY TARGET: Integrin alpha-V/beta-5 (Homo sapiens, UniProt P06756+P18084)
VALUE TYPE: pIC50
EXPERIMENTAL VALUE: 7.47

###

# ASSAY TARGET: Integrin alpha-4/beta-1 (Homo sapiens, UniProt P05556+P13612)
# PROCEDURE SUMMARY: Inhibition of fibronectin binding to […] isolated from human Jurkat E6.1 cells incubated for 1 hr by scintillation-proximity assay based competitive solid-phase binding assay
# Format: tissue-based
pIC50: −log10 of the molar value.
Label 1 when pIC50 is at or above 8; anything below gets -1.

COMPOUND: NCc1ccc(NC(=O)N2C(=O)CC2CC(=O)NCC(=O)O)cc1.O=C(O)C(F)(F)F (centres undefined)
CLASSIFICATION: -1

COMPOUND: Cc1ccccc1NC(=O)N1C(=O)C[C@H]1C(=O)O
CLASSIFICATION: 1

COMPOUND: NCc1ccc(NC(=O)N2C(=O)CC2CC(=O)O)cc1.O=C(O)C(F)(F)F (centres undefined)
CLASSIFICATION: -1

COMPOUND: O=C(O)CC1CC(=O)N1 (centres undefined)
CLASSIFICATION: -1

COMPOUND: Nc1ccc(CNC(=O)N2C(=O)CC2CC(=O)O)cc1.O=C(O)C(F)(F)F (centres undefined)
CLASSIFICATION: -1

COMPOUND: Cc1ccccc1NC(=O)N1C(=O)CC1CC(=O)NCC(=O)O (centres undefined)
CLASSIFICATION: -1
